targetDesc: PI-3 kinase γ (Homo sapiens, UniProt P48736)
Sequence (P48736 whole entry): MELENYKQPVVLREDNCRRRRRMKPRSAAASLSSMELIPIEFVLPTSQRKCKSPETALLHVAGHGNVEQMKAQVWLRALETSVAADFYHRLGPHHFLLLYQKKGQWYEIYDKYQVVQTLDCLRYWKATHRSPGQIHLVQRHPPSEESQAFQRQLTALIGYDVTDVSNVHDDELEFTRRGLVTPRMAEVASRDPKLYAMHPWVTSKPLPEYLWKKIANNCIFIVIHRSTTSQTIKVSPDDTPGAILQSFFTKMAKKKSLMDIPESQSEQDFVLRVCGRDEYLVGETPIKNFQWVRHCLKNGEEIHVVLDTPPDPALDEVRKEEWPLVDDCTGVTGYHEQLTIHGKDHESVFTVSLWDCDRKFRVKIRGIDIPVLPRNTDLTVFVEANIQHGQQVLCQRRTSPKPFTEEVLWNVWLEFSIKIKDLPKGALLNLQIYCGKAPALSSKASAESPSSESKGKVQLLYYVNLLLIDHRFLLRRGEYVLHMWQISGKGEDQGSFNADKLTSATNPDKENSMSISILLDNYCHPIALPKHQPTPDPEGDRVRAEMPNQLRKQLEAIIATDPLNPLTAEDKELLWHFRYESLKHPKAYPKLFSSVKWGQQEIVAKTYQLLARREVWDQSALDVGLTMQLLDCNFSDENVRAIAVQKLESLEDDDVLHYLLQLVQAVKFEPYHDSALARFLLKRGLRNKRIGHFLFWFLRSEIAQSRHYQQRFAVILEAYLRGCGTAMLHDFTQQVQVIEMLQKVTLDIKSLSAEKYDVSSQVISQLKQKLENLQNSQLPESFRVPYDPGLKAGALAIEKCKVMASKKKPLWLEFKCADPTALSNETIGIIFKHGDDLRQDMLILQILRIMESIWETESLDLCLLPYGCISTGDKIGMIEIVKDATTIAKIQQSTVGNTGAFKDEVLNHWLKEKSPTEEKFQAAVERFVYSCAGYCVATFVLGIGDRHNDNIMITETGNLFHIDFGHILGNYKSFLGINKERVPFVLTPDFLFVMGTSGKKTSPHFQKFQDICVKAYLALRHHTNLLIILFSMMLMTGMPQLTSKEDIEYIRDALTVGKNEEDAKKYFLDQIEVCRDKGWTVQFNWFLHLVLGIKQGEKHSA
experimentalProtocol: PI3Kγ inhibitory activity, PI3-kinase HTRF assay (inhibition ratio)
Type: biochemical
measurementParameters: 0.5 h; compound at 10 μmol/L
readoutName: inhibition at 10 µM (%)

- substanceSmiles: "COc1cc(N2CCc3nc(NC(=O)NCCC(=O)N4CCC[C@H]4C(=O)N(C)C(C)C)sc3C2)nc(OC)n1"
  targetDesc: "PI-3 kinase γ (Homo sapiens, UniProt P48736)"
  inhibition at 10 µM [%]: 89
- substanceSmiles: "CC(C)CNC(=O)c1ccc(C(=O)Nc2cc3n(n2)CCN3c2ccc3c(c2)CCN(C)C3=O)cc1"
  targetDesc: "PI-3 kinase γ (Homo sapiens, UniProt P48736)"
  inhibition at 10 µM [%]: 91
- substanceSmiles: "Cc1cccc(C(=O)N2CCc3nc(NC(=O)Nc4ccccc4C(=O)NC(C)C)sc3C2)c1"
  targetDesc: "PI-3 kinase γ (Homo sapiens, UniProt P48736)"
  inhibition at 10 µM [%]: 76
- substanceSmiles: "CN1CCc2cc(N3CCn4nc(NC(=O)c5csc(C(=O)OC(C)(C)C)c5)cc43)ccc2C1=O"
  targetDesc: "PI-3 kinase γ (Homo sapiens, UniProt P48736)"
  inhibition at 10 µM [%]: 87
- substanceSmiles: "COc1cc(N2CCc3nc(NC(=O)Nc4ccon4)sc3C2)nc(OC)n1"
  targetDesc: "PI-3 kinase γ (Homo sapiens, UniProt P48736)"
  inhibition at 10 µM [%]: 94
- substanceSmiles: "Cc1ccc(C(=O)N2CCc3nc(NC(=O)Nc4ccccc4C(=O)NC(C)C)sc3C2)cc1"
  targetDesc: "PI-3 kinase γ (Homo sapiens, UniProt P48736)"
  inhibition at 10 µM [%]: 85
